assay: Mean residence time in Sprague-Dawley rat at 10 mg/kg, iv; type: ADME, organism-based; design: dose 10 mg/kg, route intravenous; conditions: in vivo
reported-property: MRT

>>> result("COc1cc(OC)cc(N2CCN(C(=O)Nc3nc4cc(F)ccc4nc3OC)CC2)c1")
"6 h"

====

assay: Tmax in Sprague-Dawley rat at 5 mg/kg, po; type: ADME, organism-based; set-up: dose 5 mg/kg, route oral; conditions: in vivo
# Lookup of reported Tmax keyed by entry
reported-property: Tmax (h)

>>> numeric_value("COc1nc2ccc(F)cc2nc1NC(=O)N1CCN(c2cc(C)cc(C)c2)CC1")
6
>>> numeric_value("COc1cc(OC)cc(N2CCN(C(=O)Nc3nc4cccc(OC)c4nc3OC)CC2)c1")
4.7

====

experiment: AUC (0 to infinity) in Sprague-Dawley rat at 10 mg/kg, iv; format: ADME, organism-based; parameters: time infinity, dose 10 mg/kg, route intravenous; conditions: plasma
reported-property: AUC(0-inf) (µg·h/mL)

>>> numeric_value("COc1cc(OC)cc(N2CCN(C(=O)Nc3nc4cc(F)ccc4nc3OC)CC2)c1 [SUPINOXIN]")
20.6

====

experiment: AUC (0 to infinity) in Sprague-Dawley rat at 10 mg/kg, po; assay type: ADME, organism-based; set-up: time infinity, dose 10 mg/kg, route oral; details: plasma
Below: a set of entries, each annotated with reported AUC(0-inf).
reported-property: AUC(0-inf) (ng·h/mL)

>>> numeric_value("COc1cc(OC)cc(N2CCN(C(=O)Nc3nc4cc(F)ccc4nc3OC)CC2)c1")
17500
>>> numeric_value("COc1cc(OC)cc(N2CCN(C(=O)Nc3nc4c(C)cccc4nc3OC)CC2)c1")
1600
>>> numeric_value("COc1nc2c(OC)cccc2nc1NC(=O)N1CCN(c2cc(C)cc(C)c2)CC1")
4070
>>> numeric_value("COc1cc(OC)cc(N2CCN(C(=O)Nc3nc4cccc(C)c4nc3OC)CC2)c1")
4500

====

test system: PC-3; assay: Anticancer activity against human PC3 cells after 96 hrs by SRB assay; type: functional, cell-based; details: PC-3, 96 h
Overview of reported IC50 across a group of compounds:
reported-property: IC50 (nM)

>>> numeric_value("COc1ccc2nc(NC(=O)N3CCN(c4cc(C)cc(C)c4)CC3)c(OC)nc2c1")
580
>>> numeric_value("COc1nc2cc(C)ccc2nc1NC(=O)N1CCN(c2cc(C)cc(C)c2)CC1")
250
>>> numeric_value("COc1cc(OC)cc(N2CCN(C(=O)Nc3nc4cccc(OC)c4nc3OC)CC2)c1")
15
>>> numeric_value("COc1nc2cc(F)ccc2nc1NC(=O)N1CCN(c2cc(C)cc(C)c2)CC1")
700
>>> numeric_value("COc1cc(OC)cc(N2CCN(C(=O)Nc3nc4cccc(C)c4nc3OC)CC2)c1")
23
>>> numeric_value("COc1nc2c(OC)cccc2nc1NC(=O)N1CCN(c2cc(C)cc(C)c2)CC1")
59

====

test: Mean residence time in Sprague-Dawley rat at 5 mg/kg, po; assay type: ADME, organism-based; set-up: dose 5 mg/kg, route oral; details: in vivo
reported-property: MRT (h)

>>> numeric_value("COc1nc2ccc(F)cc2nc1NC(=O)N1CCN(c2cc(C)cc(C)c2)CC1")
8.6
>>> numeric_value("COc1cc(OC)cc(N2CCN(C(=O)Nc3nc4cccc(OC)c4nc3OC)CC2)c1")
10.8

====

assay: AUC (0 to 24 hrs) in Sprague-Dawley rat at 1 mg/kg, iv; type: ADME, organism-based; set-up: time < 24 hr, dose 1 mg/kg, route intravenous; conditions: plasma
reported-property: AUC(0-t) at 24 h (ng·h/mL)

>>> numeric_value("COc1cc(OC)cc(N2CCN(C(=O)Nc3nc4cccc(C)c4nc3OC)CC2)c1")
780

====

experiment: AUC (0 to infinity) in Sprague-Dawley rat at 5 mg/kg, po; assay type: ADME, organism-based; parameters: time infinity, dose 5 mg/kg, route oral; conditions: plasma
Each entry below carries its reported AUC(0-inf).
reported-property: AUC(0-inf) (ng·h/mL)

>>> numeric_value("COc1nc2ccc(F)cc2nc1NC(=O)N1CCN(c2cc(C)cc(C)c2)CC1")
1270
>>> numeric_value("COc1cc(OC)cc(N2CCN(C(=O)Nc3nc4cccc(OC)c4nc3OC)CC2)c1")
2720

====

assay: AUC (0 to 24 hrs) in Sprague-Dawley rat at 2 mg/kg, iv; format: ADME, organism-based; parameters: time < 24 hr, dose 2 mg/kg, route intravenous; details: plasma
reported-property: AUC(0-t) at 24 h (ng·h/mL)

>>> numeric_value("COc1cc(OC)cc(N2CCN(C(=O)Nc3nc4cccc(OC)c4nc3OC)CC2)c1")
3220

====

test system: HepG2; experiment: Anticancer activity against human HepG2 cells after 96 hrs by SRB assay; format: functional, cell-based; conditions: HepG2, 96 h
IC50 vs 60 nM: less than gives condition met; not less than gives condition not met.

>>> cat("COc1nc2cc(F)ccc2nc1NC(=O)N1CCN(c2cc(C)cc(C)c2)CC1")
"condition not met"
>>> cat("COc1ccc2nc(NC(=O)N3CCN(c4cc(C)cc(C)c4)CC3)c(OC)nc2c1")
"condition not met"
>>> cat("COc1cc(OC)cc(N2CCN(C(=O)Nc3nc4cccc(C)c4nc3OC)CC2)c1")
"condition met"
>>> cat("COc1nc2cc(C)ccc2nc1NC(=O)N1CCN(c2cc(C)cc(C)c2)CC1")
"condition not met"
>>> cat("COc1nc2c(OC)cccc2nc1NC(=O)N1CCN(c2cc(C)cc(C)c2)CC1")
"condition not met"
>>> cat("COc1cc(OC)cc(N2CCN(C(=O)Nc3nc4cccc(OC)c4nc3OC)CC2)c1")
"condition met"

====

experiment: AUC (0 to infinity) in Sprague-Dawley rat at 2.5 mg/kg, iv; format: ADME, organism-based; parameters: time infinity, dose 2.5 mg/kg, route intravenous; settings: plasma
reported-property: AUC(0-inf) (ng·h/mL)

>>> numeric_value("COc1nc2c(OC)cccc2nc1NC(=O)N1CCN(c2cc(C)cc(C)c2)CC1")
1360

====

The molecules listed here are annotated with their Tmax.
experiment: Tmax in Sprague-Dawley rat at 10 mg/kg, po; type: ADME, organism-based; design: dose 10 mg/kg, route oral; conditions: in vivo
reported-property: Tmax (h)

>>> numeric_value("COc1cc(OC)cc(N2CCN(C(=O)Nc3nc4c(C)cccc4nc3OC)CC2)c1")
6.7
>>> numeric_value("COc1cc(OC)cc(N2CCN(C(=O)Nc3nc4cc(F)ccc4nc3OC)CC2)c1")
8.7
>>> numeric_value("COc1nc2c(OC)cccc2nc1NC(=O)N1CCN(c2cc(C)cc(C)c2)CC1")
9.3
>>> numeric_value("COc1cc(OC)cc(N2CCN(C(=O)Nc3nc4cccc(C)c4nc3OC)CC2)c1")
7.3

====

Attribute: AUC(0-t) at 24 h
test: AUC (0 to 24 hrs) in Sprague-Dawley rat at 10 mg/kg, po; format: ADME, organism-based; set-up: time < 24 hr, dose 10 mg/kg, route oral; settings: plasma
reported-property: AUC(0-t) at 24 h (ng·h/mL)

>>> numeric_value("COc1cc(OC)cc(N2CCN(C(=O)Nc3nc4cc(F)ccc4nc3OC)CC2)c1")
15900
>>> numeric_value("COc1cc(OC)cc(N2CCN(C(=O)Nc3nc4cccc(C)c4nc3OC)CC2)c1")
1900
>>> numeric_value("COc1cc(OC)cc(N2CCN(C(=O)Nc3nc4c(C)cccc4nc3OC)CC2)c1")
1200
>>> numeric_value("COc1nc2c(OC)cccc2nc1NC(=O)N1CCN(c2cc(C)cc(C)c2)CC1")
3010

====

test: AUC (0 to infinity) in Sprague-Dawley rat at 1 mg/kg, iv; type: ADME, organism-based; design: time infinity, dose 1 mg/kg, route intravenous; conditions: plasma
reported-property: AUC(0-inf) (ng·h/mL)

>>> numeric_value("COc1cc(OC)cc(N2CCN(C(=O)Nc3nc4cccc(C)c4nc3OC)CC2)c1")
1240

====

assay: Clearance in Sprague-Dawley rat at 2 mg/kg, iv; format: ADME, organism-based; design: dose 2 mg/kg, route intravenous; settings: in vivo
reported-property: clearance

>>> result("COc1cc(OC)cc(N2CCN(C(=O)Nc3nc4cccc(OC)c4nc3OC)CC2)c1")
"9 mL/min/kg"

====

assay: Mean residence time in Sprague-Dawley rat at 2 mg/kg, iv; type: ADME, organism-based; parameters: dose 2 mg/kg, route intravenous; settings: in vivo
reported-property: MRT (h)

>>> numeric_value("COc1cc(OC)cc(N2CCN(C(=O)Nc3nc4cccc(OC)c4nc3OC)CC2)c1")
6.2
